target: GST-tagged KRAS-G12V (2-169) (Homo sapiens, UniProt P01116, G12V); experiment: Nucleotide exchange assay (NEA), SOS-mediated, HTRF, KRAS G12V; conditions: Table 4; IC50 extracted at 90 min; 80 nM SOS
Sequence (P01116 2-169 isoform P01116-2 G12V): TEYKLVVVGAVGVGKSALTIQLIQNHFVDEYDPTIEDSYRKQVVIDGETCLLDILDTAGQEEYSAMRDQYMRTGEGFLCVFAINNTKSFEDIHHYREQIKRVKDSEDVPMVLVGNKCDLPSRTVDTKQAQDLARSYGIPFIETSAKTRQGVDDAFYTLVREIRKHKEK
pIC50: −log10 of the molar value.
reported property: pIC50

Exercise: Give its pIC50 value. Item: "N#Cc1c(N)sc2c1C1(CN(c3nc(OC[C@@]45CCCN4C[C@H](F)C5)nc(N(CC(N)=O)C4(C#N)CC4)n3)C1)SC2"
Key: > 8.00

Exercise: N#Cc1c(N)sc2c1C1(CC2)CCN(c2nc(OC[C@@]34CCCN3C[C@H](F)C4)nc(N3CCCC(C#N)CC3)n2)C1 (stereo partly drawn) , same question.
Key: 6.00 to 7.00

Exercise: Another compound to check: CC(c1nsnc1N)N(C)c1nc(OC[C@@]23CCCN2C[C@H](F)C3)nc(N2CC3(CCc4sc(N)c(C#N)c43)C2)n1 (stereo partly drawn)
Key: > 8.00

###

target: GST-tagged KRAS-G12V (2-169) (Homo sapiens, UniProt P01116, G12V); assay: Nucleotide exchange assay (NEA), SOS-mediated, HTRF, KRAS G12V; details: Table 4; IC50 extracted at 90 min; 80 nM SOS
Give measured IC50 for each item. Keep answers brief.

Exercise: What does the record list as IC50 for CN(Cc1ccn[nH]1)c1nc(OC[C@@]23CCCN2C[C@H](F)C3)nc(N2CC3(CCc4sc(N)c(C#N)c43)C2)n1 (racemic) ?
Key: 0.1 to 1 µM

Exercise: Now give it for C[C@@]1(O)CCCN(c2nc(OC[C@@]34CCCN3C[C@H](F)C4)nc(N3CC4(C3)c3c(sc(N)c3C#N)C[S+]4[O-])n2)C1 (stereo partly drawn) too.
Key: 1 to 20 µM

Exercise: Also "N#Cc1c(N)sc2c1C1(CN(c3nc(OC[C@@]45CCCN4C[C@H](F)C5)nc(N4[C@H]5CC[C@]4(CO)COC5)n3)C1)SC2" ?
Key: < 0.01 µM

###

For each entry below, report its IC50 value.
biological target: w.t. KRAS/RAF1 (Homo sapiens, UniProt P01116); construct: KRAS (1-169) proteins were expressed in BL21 (DE3)-CodonPlus E. coli; His6-MBP (N, cleaved yes); test: Protein-protein interaction (PPI) HTRF assay w.t. KRAS/RAF1; type: binding; settings: Table 3; wt KRAS/RAF1
Sequence (P01116 with tags, fused parts or gaps isoform P01116-2): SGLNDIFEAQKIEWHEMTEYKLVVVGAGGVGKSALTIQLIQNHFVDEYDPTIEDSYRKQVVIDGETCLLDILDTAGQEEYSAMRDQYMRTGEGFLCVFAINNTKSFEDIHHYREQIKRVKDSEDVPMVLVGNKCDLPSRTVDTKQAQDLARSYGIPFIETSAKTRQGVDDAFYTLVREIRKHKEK

Exercise: State the recorded IC50 for this entry: N#Cc1c(N)sc2c1C1(CC2)CN(c2nc(OC[C@@]34CCCN3C[C@H](F)C4)nc(N3CCCC(C#N)CC3)n2)C1 (stereo partly drawn)
Key: 1 to 10 µM

Exercise: Do the same for "N#Cc1c(N)sc2c1C1(CCC2)CN(c2nc(OCC3(CN4CCOCC4)CC3)nc(N3C[C@H]4CC[C@@H](C3)N4)n2)C1" please
Key: 1 to 10 µM

Exercise: Request: N#Cc1c(N)sc2c1C1(CC2)CN(c2nc(OC[C@@]34CCCN3C[C@H](F)C4)nc(N3CC[C@@H](O)[C@@H](O)C3)n2)C1 (racemic)
Key: 1 to 10 µM

###

system: phospho-ERK in SW620 (KRAS-G12V) cells; assay: pERK In Cell Western (ICW) assay (Method B), SW620; assay type: cell-based; conditions: Homo sapiens, SW-620, 3 h, Table 4
pIC50: −log10 of the molar value.
Give pIC50 for every item shown.

Exercise: Notebook entry, phospho-ERK in SW620 (KRAS-G12V) cells assay: pIC50 of "C[C@@]1(O)CCCN(c2nc(OC[C@@]34CCCN3C[C@H](F)C4)nc(N3CC4(CCc5sc(N)c(C#N)c54)C3)n2)C1" = ?
Key: 6.00 to 7.00

Exercise: // same read-out, input: CCN(c1nc(OC[C@@H]2CC[C@H]3CN(C)CCN23)nc(N2CC3(C2)SCc2sc(N)c(C#N)c23)n1)[C@H](C)c1cccnc1N (mixture of isomers)
Key: 7.00 to 8.00

Exercise: How about "CCN(c1nc(OC[C@@]23CCCN2C[C@H](F)C3)nc(N2CC3(C2)SCc2sc(N)c(C#N)c23)n1)[C@H](C)C#N" ?
Key: 7.00 to 8.00

Exercise: What do we get for CC1(O)CC(F)CN(c2nc(OC[C@@]34CCCN3C[C@H](F)C4)nc(N3CC4(CCc5sc(N)c(C#N)c54)C3)n2)C1 (stereo partly drawn) ?
Key: 6.00 to 7.00

Exercise: Another compound to look at: CCN(c1nc(OC[C@@]23CCCN2C[C@H](F)C3)nc(N2CC3(C2)SCc2sc(N)c(C#N)c23)n1)[C@H](C)c1cccnc1N [Compound 139A]
Key: > 8.00

Exercise: Ok, now "CC(=O)C(O)(O)C(=O)N1[C@@H]2CC[C@H]1CN(c1nc(OC[C@@]34CCCN3C[C@H](F)C4)nc(N3CC4(C3)SCc3sc(N)c(C#N)c34)n1)C2"
Key: 4.70 to 6.00
